Source listed as PubChem BioAssay AID1963840.

Here the recorded viability, T/C is given for each entry.
test system: 695427-040-R-J1-PDC complex spheroid viability; assay: Anticancer human tumor 695427-040-R-J1-PDC patient-derived colon adenocarcinoma cell line growth inhibition [POLQ]; conditions: second compound 0.1 µM; first compound 0.001 µM; stronger effect = lower value
Respond numerically; units are % and should not be typed.

Some entries whose results are on file:
Compound	viability, T/C (%)
CC[C@@]1(O)C(=O)OCc2c1cc1n(c2=O)Cc2cc3c(CN(C)C)c(O)ccc3nc2-1 + Cc1cccc(N(C)C(=O)C2C(O)CCN2c2nc(C)cc(C(F)(F)F)c2C#N)c1	98.5
CC[C@@]1(O)C(=O)OCc2c1cc1n(c2=O)Cc2cc3c(CN(C)C)c(O)ccc3nc2-1 + COC1C(OC(N)=O)C(O)C(Oc2ccc3c(O)c(NC(=O)c4ccc(O)c(CC=C(C)C)c4)c(=O)oc3c2C)OC1(C)C	104
Cn1ncnc1[C@H]1c2n[nH]c(=O)c3cc(F)cc(c23)N[C@@H]1c1ccc(F)cc1 + COC1C(OC(N)=O)C(O)C(Oc2ccc3c(O)c(NC(=O)c4ccc(O)c(CC=C(C)C)c4)c(=O)oc3c2C)OC1(C)C	93.3
CC[C@@]1(O)C(=O)OCc2c1cc1n(c2=O)Cc2cc3c(CN(C)C)c(O)ccc3nc2-1 + Nc1ccc(C#CCN(C(=O)Cc2ncc(C(F)(F)F)cc2C(F)(F)F)c2ccc(F)cc2)nn1	105
Cn1ncnc1[C@H]1c2n[nH]c(=O)c3cc(F)cc(c23)N[C@@H]1c1ccc(F)cc1 + Cc1cccc(N(C)C(=O)C2C(O)CCN2c2nc(C)cc(C(F)(F)F)c2C#N)c1	91.2

Would you kindly look at the next entry?
### Prompt Identify measured viability, T/C associated with Cn1ncnc1[C@H]1c2n[nH]c(=O)c3cc(F)cc(c23)N[C@@H]1c1ccc(F)cc1 + Nc1ccc(C#CCN(C(=O)Cc2ncc(C(F)(F)F)cc2C(F)(F)F)c2ccc(F)cc2)nn1
### Response 122

###

test system: 695427-040-R-J1-PDC complex spheroid viability; assay: Anticancer human tumor 695427-040-R-J1-PDC cell line growth inhibition [POLQ]; conditions: second compound 0.1 µM; first compound 0.316 µM; stronger effect = lower value;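 also: spheroids exposed to compounds for seven days; 100% = DMSO vehicle control viability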
Here the recorded viability, T/C is given for each entry.
Respond numerically; units are % and should not be typed.

Some entries whose results are on file:
Molecule	Endpoint unit	viability, T/C
CCc1c2c(nc3ccc(O)cc13)-c1cc3c(c(=O)n1C2)COC(=O)[C@]3(O)CC + Nc1ccc(C#CCN(C(=O)Cc2ncc(C(F)(F)F)cc2C(F)(F)F)c2ccc(F)cc2)nn1	%	81.2
COc1cc2cc(C(=O)CCC(=O)O)sc2cc1OC + COC1C(OC(N)=O)C(O)C(Oc2ccc3c(O)c(NC(=O)c4ccc(O)c(CC=C(C)C)c4)c(=O)oc3c2C)OC1(C)C	%	106
C#Cc1c(F)ccc2cc(O)cc(-c3ncc4c(N5CC6CCC(C5)N6)nc(OCC56CCCN5CC(F)C6)nc4c3F)c12 (centres undefined) + Nc1ccc(C#CCN(C(=O)Cc2ncc(C(F)(F)F)cc2C(F)(F)F)c2ccc(F)cc2)nn1	%	105

### Prompt Identify measured viability, T/C associated with O=C(Nc1ccc(O)c(NS(=O)(=O)c2ccc(F)cc2)c1)c1ccc(-c2ccccc2)cc1 + Cc1cccc(N(C)C(=O)C2C(O)CCN2c2nc(C)cc(C(F)(F)F)c2C#N)c1
### Response 95.9
